Reference source for all entries: PubChem BioAssay (NCI)

- Tested on: SF-295 CNS
- METHOD_SUMMARY: NCI-60 one-dose screen, 48 h
- PARTICULARS: 10 µM unless noted
Compounds without any hit were thinned out: in the full panel of roughly 83,000, 20% have a hit. Calls of active or inactive are those of the source. How the source made its calls: active means growth percent below 10; inactive means the rest.
Labels: 1 (active), -1 (inactive)

molecule="CN1C(=O)C2(C(C#N)=C(c3ccc(Cl)cc3)Nc3c2c(-c2ccccc2)nn3-c2ccccc2)c2ccccc21 (centres undefined)" test_system="SF-295 CNS" class_label=-1
molecule=Cc1ccc2nc(COc3ccc(C(=O)NNC(=O)Nc4ccc(Cl)c(C(F)(F)F)c4)cc3)[nH]c2c1 test_system="SF-295 CNS" class_label=-1
molecule=Fc1ccc(Nc2nnc(-c3c[nH]c4ccccc34)o2)cc1 test_system="SF-295 CNS" class_label=-1
molecule=Cn1cc(-c2cc(N)n3nc(-c4c[nH]c5ccc(F)cc45)cc3n2)c2cccnc21 test_system="SF-295 CNS" class_label=1

----------
- Test system: SF-539 CNS
- METHOD_SUMMARY: NCI-60 one-dose screen, 48 h (100 = growth as untreated, 0 = no growth, -100 = all killed)
- PARTICULARS: 10 µM unless noted
This is part of a sample that, as a whole, favours compounds with a hit. Of some 83,000 tested, about 20% had one in any assay.
growth vs 20%: at or above is yes (1), below is no (0).

molecule=Cc1nc2sccn2c1-c1nnc(SCc2ccccc2)o1 class_label="yes (1)"
molecule=COc1ccc(/C=C/C(=O)c2ccc(OC)c(S(N)(=O)=O)c2)c(C(F)(F)F)c1 class_label="no (0)"
molecule=COc1ccc(-c2nnc3c(/C=C/c4ccc(Br)cc4)nc4ccccc4n23)cc1 class_label="yes (1)"
molecule=CCCSc1nnc(-c2c(C)nc3sccn23)o1 class_label="yes (1)"
molecule=Cc1cccc(-c2ccccc2Oc2ccc3nnc(Cl)n3n2)c1 class_label="yes (1)"
molecule=Nc1nc(-c2ccccc2)c(N=Nc2ccc(Cl)cc2Cl)s1 class_label="no (0)"
molecule=CC(=O)Nc1ccc(S(=O)(=O)Nc2ccc(-c3ccc4c(c3)NC(=O)/C4=C\c3ccc[nH]3)cc2)cc1 class_label="yes (1)"
molecule="CCCCNc1ccc2c3c(cccc13)C(=O)N(NCC(O)COc1ccc3c(C)cc(=O)oc3c1)C2=O (stereo not drawn)" class_label="yes (1)"
molecule="CC1=C(C(=O)Nc2ccccc2)C(c2cccc(Cl)c2Cl)n2c(nc3ccccc32)N1 (stereo not drawn)" class_label="yes (1)"
molecule="CC1=C(C(=O)OCc2ccccc2)C(c2cccc3ccccc23)n2c(nc3ccccc32)N1 (stereo not drawn)" class_label="no (0)"
molecule=Cn1cc(-c2cc(N)n3nc(-c4c[nH]c5ccccc45)cc3n2)c2ccccc21 class_label="no (0)"
molecule=N#C/C(=C/c1ccc(Cl)cc1)c1nnc(NC(=O)c2ccc(-n3c(=O)[nH]c4ccccc4c3=O)cc2)s1 class_label="yes (1)"
molecule="CC1=C(C(=O)OCc2ccccc2)C(c2ccc(N(C)C)cc2)n2c(nc3ccccc32)N1 (stereo not drawn)" class_label="yes (1)"

----------
- Test system: HOP-92 NSCLC
- METHOD_SUMMARY: NCI-60 one-dose screen, 48 h (100 = growth as untreated, 0 = no growth, -100 = all killed)
- PARTICULARS: 10 µM unless noted
About 83,000 compounds went through this panel and 20% of them were active in at least one assay; those are over-represented in the sample as a whole.
The class of a record is decided solely by its measured growth; consult class 1: < 10%; class 2: ≥ 10% and < 60%; class 3: ≥ 60%

compound=COc1cccc(-c2ccc(/C=N/NC(=O)c3[nH]c4ccc(Br)cc4c3-c3ccccc3)s2)c1 class_label="class 2"
compound=Cc1ccc2c(c1)/C(=C/C(=O)c1cc3ccccc3oc1=O)C(=O)N2 class_label="class 1"
compound=COc1ccc(-c2cc(-c3cc(C(C)C)c(O)cc3C)nn2-c2ccc(S(N)(=O)=O)cc2)cc1 class_label="class 2"
compound="CC1=C(C(=O)OCc2ccccc2)C(c2cccc3ccccc23)n2c(nc3ccccc32)N1 (stereo not drawn)" class_label="class 3"
compound=CCOC(=O)c1ccc(NC(=S)NC(=O)c2ccc(NC(=O)C(C)C)cc2OC)cc1 class_label="class 2"
compound="CN1C(=O)C(O)(CC(=O)c2cc3ccccc3oc2=O)c2ccccc21 (stereo not drawn)" class_label="class 3"
compound=c1n[nH]cc1-c1nc2ccc3[nH]ncc3c2c2c1CC1(CC2)COC1 class_label="class 3"
compound=COc1ccc(NC(=O)CSc2nnc(-c3ccc(-c4nc5ccccc5[nH]4)cc3)o2)cc1 class_label="class 2"
compound=N/C(=N\c1nc2ccc([N+](=O)[O-])cc2s1)NC(=O)Nc1ccccc1Cl class_label="class 2"
compound=CCCn1c(NC(=O)c2cccc(C(N)=O)c2)nc2ccc(CN3CCCCC3)cc21 class_label="class 3"
compound=Cc1ccc(Nc2nnc(-c3c[nH]c4ccccc34)o2)c(C)c1 class_label="class 2"
compound="CC1=C(C(=O)Nc2ccccc2)C(c2ccc3ccccc3c2)n2c(nc3ccccc32)N1 (stereo not drawn)" class_label="class 3"
compound=O=C(N/N=C/c1ccc(B(O)O)s1)c1[nH]c2ccc(Br)cc2c1-c1ccccc1 class_label="class 1"
compound=COc1cc(CNC(=O)C[C@H](C)CCC=C(C)C)ccc1OCc1cn(-c2cccc(C(F)(F)F)c2)nn1 class_label="class 3"
compound=O=C(CSc1nnc(-c2ccc(-c3nc4ccc(Cl)cc4[nH]3)cc2)o1)Nc1ccccc1 class_label="class 1"
compound="CCN1C(=O)N(CC)C2NNC(Sc3c(C(=O)O)c4ccccc4n(CCC(C)C)c3=O)=NC21 (stereo not drawn)" class_label="class 2"
compound=COc1ccc(NC(=O)N/N=C/c2c[nH]c3ccccc23)cc1 class_label="class 3"
compound="CC1=NN(C2=NC(=O)C(CC(=O)Nc3ccccc3C(F)(F)F)S2)C(c2ccc(N(C)C)cc2)C1 (stereo not drawn)" class_label="class 1"
compound=N#Cc1cc(-c2ccc3ncnc(N4CCc5cc(F)c(Cl)cc54)c3c2)cnc1N class_label="class 1"
compound=COc1ccc(NC(=O)CSc2nnc(-c3ccc(-c4nc5ccc(Cl)cc5[nH]4)cc3)o2)cc1 class_label="class 1"
compound="N#CC1=C(c2ccco2)Nc2c(c(-c3ccccc3)nn2-c2ccccc2)C12C(=O)Nc1ccc(Br)cc12 (stereo not drawn)" class_label="class 2"
compound=O=C1Nc2ccccc2/C1=C\c1ccc(OCC(=O)c2ccc(Br)cc2)cc1 class_label="class 3"
compound=O=C(NNC(=S)NCCc1ccccc1)c1ccc(OCc2nc3ccc(Cl)cc3[nH]2)cc1 class_label="class 3"
compound=COc1sc(/C=N/NC(=O)c2[nH]c3ccc(Br)cc3c2-c2ccccc2)cc1Cl class_label="class 1"
compound="COc1ccc(C2=NN(C(=O)[C@H]3[C@@H](c4ccco4)c4sc(=O)[nH]c4S[C@@H]3C)C(c3ccc4ccccc4c3)C2)cc1 (stereo partly drawn)" class_label="class 2"
compound=CCN1CCN(Cc2ccc(C(=O)Nc3cccc(Nc4ccc5c(OC)cccc5n4)c3)cc2C(F)(F)F)CC1 class_label="class 1"
compound=CCCCCCCCc1ccc(C(=O)Nc2cccc(O)c2)cc1 class_label="class 1"
compound=COc1ccc(-c2cc(-c3ccccc3)c(C#N)c(=O)[nH]2)cc1S(N)(=O)=O class_label="class 3"
compound=O=C(Nc1nc2ccccc2s1)Nc1ccccc1Cl class_label="class 3"
compound=COc1ccc(N=Nc2c(N)nn3c(-c4cc5ccccc5oc4=O)ccnc23)cc1 class_label="class 2"
compound=COc1cc(CNC(=O)C[C@H](C)CCC=C(C)C)ccc1OCc1cn(-c2ccccc2F)nn1 class_label="class 1"
compound=CCCn1c(NC(=O)c2cccc(C(N)=O)c2)nc2cc(CN3CCCCC3)ccc21 class_label="class 3"
